assay: In vitro deprotection under UV light and sunlight, followed by mass spectrometry/TLC and P NMR; assay type: physicochemical; conditions: 8 W/254 nm
Measured Metric: deprotection time of caged G6P(1-OMe) (h)

INSERT INTO results (molecule, measured_metric, test_value) VALUES
  ('CO[C@H]1O[C@H](COP(=O)(OCc2ccccc2[N+](=O)[O-])OCc2ccccc2[N+](=O)[O-])[C@@H](O)[C@H](O)[C@H]1O', 'deprotection time of caged G6P(1-OMe)', 6),
  ('COc1cc(COP(=O)(O)OC[C@H]2O[C@H](OC)[C@H](O)[C@@H](O)[C@@H]2O)c([N+](=O)[O-])cc1OC', 'deprotection time of caged G6P(1-OMe)', 10),
  ('COc1cc(COP(=O)(OCc2cc(OC)c(OC)cc2[N+](=O)[O-])OC[C@H]2O[C@H](OC)[C@H](O)[C@@H](O)[C@@H]2O)c([N+](=O)[O-])cc1OC', 'deprotection time of caged G6P(1-OMe)', 10),
  ('COC1OC(COP(=O)(OC(C)c2ccccc2[N+](=O)[O-])OC(C)c2ccccc2[N+](=O)[O-])C(O)C(O)C1O (mixture of isomers)', 'deprotection time of caged G6P(1-OMe)', 2);

====

We begin with a simple list: items and their reported deprotection time.
Assay: In vitro deprotection under UV light and sunlight, followed by mass spectrometry/TLC and P NMR
Type: physicochemical
Conditions: 8 W/254 nm; 5 mM in phosphate buffer pH 7.4
Source text: Two experimental techniques were chosen for studying the progress of deprotection experiments i.e. i) Mass spectroscopy and TLC (spot), and ii) P NMR. Progress of the reactions was monitored by looking for the disappearance of peak corresponding to protected compounds and appearance of peak corresponding to T6P. The structure of completely uncaged compound i.e. T6P was established by 1D and 2D NMR. […]
Measured Metric: deprotection time (h)

INSERT INTO results (molecule, test_value) VALUES
  ('CC(OP(=O)(OCC1O[C@H](O[C@H]2OC(CO)[C@@H](O)C(O)C2O)C(O)C(O)[C@@H]1O)OC(C)c1ccccc1[N+](=O)[O-])c1ccccc1[N+](=O)[O-] (stereo partly shown)', 1.5),
  ('O=[N+]([O-])c1ccccc1COP(=O)(OCc1ccccc1[N+](=O)[O-])OCC1O[C@H](O[C@H]2OC(CO)[C@@H](O)C(O)C2O)C(O)C(O)[C@@H]1O (stereo partly shown)', 4),
  ('COc1cc(COP(=O)(OCc2cc(OC)c(OC)cc2[N+](=O)[O-])OCC2O[C@H](O[C@H]3OC(CO)[C@@H](O)C(O)C3O)C(O)C(O)[C@@H]2O)c([N+](=O)[O-])cc1OC (stereo partly shown)', 10),
  ('COc1cc(COP(=O)(O)OCC2O[C@H](O[C@H]3OC(CO)[C@@H](O)C(O)C3O)C(O)C(O)[C@@H]2O)c([N+](=O)[O-])cc1OC (stereo partly shown)', 10);

====

assay: In vitro deprotection under UV light and sunlight, followed by mass spectrometry/TLC and P NMR; assay type: physicochemical; settings: 125 W/200-400 nm; 5 mM in phosphate buffer pH 7.4
Measured Metric: deprotection time (min)

INSERT INTO measurements (compound, quantity_unit, test_value) VALUES
  ('COc1cc(COP(=O)(O)OCC2O[C@H](O[C@H]3OC(CO)[C@@H](O)C(O)C3O)C(O)C(O)[C@@H]2O)c([N+](=O)[O-])cc1OC (stereo partly shown)', 'min', 45),
  ('CC(OP(=O)(OCC1O[C@H](O[C@H]2OC(CO)[C@@H](O)C(O)C2O)C(O)C(O)[C@@H]1O)OC(C)c1ccccc1[N+](=O)[O-])c1ccccc1[N+](=O)[O-] (stereo partly shown)', 'min', 10),
  ('COc1cc(COP(=O)(OCc2cc(OC)c(OC)cc2[N+](=O)[O-])OCC2O[C@H](O[C@H]3OC(CO)[C@@H](O)C(O)C3O)C(O)C(O)[C@@H]2O)c([N+](=O)[O-])cc1OC (stereo partly shown)', 'min', 60),
  ('O=[N+]([O-])c1ccccc1COP(=O)(OCc1ccccc1[N+](=O)[O-])OCC1O[C@H](O[C@H]2OC(CO)[C@@H](O)C(O)C2O)C(O)C(O)[C@@H]1O (stereo partly shown)', 'min', 15);

====

experiment: In vitro deprotection under UV light and sunlight, followed by mass spectrometry/TLC and P NMR; assay type: physicochemical; conditions: 8 W/365 nm; 5 mM in phosphate buffer pH 7.4
Measured Metric: deprotection time (h)

INSERT INTO assay_data (compound, test_value) VALUES
  ('CC(OP(=O)(OCC1O[C@H](O[C@H]2OC(CO)[C@@H](O)C(O)C2O)C(O)C(O)[C@@H]1O)OC(C)c1ccccc1[N+](=O)[O-])c1ccccc1[N+](=O)[O-] (stereo partly shown)', 1.5),
  ('O=[N+]([O-])c1ccccc1COP(=O)(OCc1ccccc1[N+](=O)[O-])OCC1O[C@H](O[C@H]2OC(CO)[C@@H](O)C(O)C2O)C(O)C(O)[C@@H]1O (stereo partly shown)', 6),
  ('COc1cc(COP(=O)(O)OCC2O[C@H](O[C@H]3OC(CO)[C@@H](O)C(O)C3O)C(O)C(O)[C@@H]2O)c([N+](=O)[O-])cc1OC (stereo partly shown)', 6),
  ('COc1cc(COP(=O)(OCc2cc(OC)c(OC)cc2[N+](=O)[O-])OCC2O[C@H](O[C@H]3OC(CO)[C@@H](O)C(O)C3O)C(O)C(O)[C@@H]2O)c([N+](=O)[O-])cc1OC (stereo partly shown)', 10);

====

assay: In-planta uptake after feeding to roots of seedlings, quantified by HPLC/LCMS; assay type: in vivo, Arabidopsis thaliana; settings: Arabidopsis thaliana, in vivo; protected T6P compounds, Arabidopsis seedling, after 72 h (3 days), n = 3; read-out: uptake in μg/10 mg of seedling
Measured Metric: concentration at 72 h (ng/g)

INSERT INTO measurements (compound, measured_metric, test_value) VALUES
  ('COc1cc(COP(=O)(O)OCC2O[C@H](O[C@H]3OC(CO)[C@@H](O)C(O)C3O)C(O)C(O)[C@@H]2O)c([N+](=O)[O-])cc1OC (some centres unmarked)', 'concentration at 72 h', 360000),
  ('COc1cc(COP(=O)(OCc2cc(OC)c(OC)cc2[N+](=O)[O-])OCC2O[C@H](O[C@H]3OC(CO)[C@@H](O)C(O)C3O)C(O)C(O)[C@@H]2O)c([N+](=O)[O-])cc1OC (some centres unmarked)', 'concentration at 72 h', 318000);

====

experiment: In-planta uptake after feeding to roots of seedlings, quantified by HPLC/LCMS; type: in vivo, Arabidopsis thaliana; details: Arabidopsis thaliana, in vivo; 1 mM final concentration fed near the root, 48 h
Measured Metric: concentration at 48 h

INSERT INTO results (compound, test_value) VALUES
  ('O=[N+]([O-])c1ccccc1COP(=O)(OCc1ccccc1[N+](=O)[O-])OCC1O[C@H](O[C@H]2OC(CO)[C@@H](O)C(O)C2O)C(O)C(O)[C@@H]1O (stereo partly shown)', '605000 ng/g');

====

We begin with a simple list: items and their reported concentration at 72 h.
test: In-planta uptake after feeding to roots of seedlings, quantified by HPLC/LCMS; assay type: in vivo, Arabidopsis thaliana; settings: Arabidopsis thaliana, in vivo, 1 mM; protected T6P compounds, Arabidopsis seedling, after 72 h (3 days), n = 3; read-out: uptake in μg/10 mg of seedling
Measured Metric: concentration at 72 h (ng/g)

INSERT INTO assay_data (molecule, test_value) VALUES
  ('COc1cc(COP(=O)(OCc2cc(OC)c(OC)cc2[N+](=O)[O-])OCC2O[C@H](O[C@H]3OC(CO)[C@@H](O)C(O)C3O)C(O)C(O)[C@@H]2O)c([N+](=O)[O-])cc1OC (some centres unmarked) [Example 2, DMNB-T6P]', 318000),
  ('COc1cc(COP(=O)(O)OCC2O[C@H](O[C@H]3OC(CO)[C@@H](O)C(O)C3O)C(O)C(O)[C@@H]2O)c([N+](=O)[O-])cc1OC (some centres unmarked) [Example 4, Mono-DMNB-T6P]', 360000);

====

We begin with a simple list: items and their reported deprotection time of caged G6P(1-OMe).
test: In vitro deprotection under UV light and sunlight, followed by mass spectrometry/TLC and P NMR; format: physicochemical; settings: 125 W/365 nm
Measured Metric: deprotection time of caged G6P(1-OMe)

INSERT INTO results (compound, measured_metric, test_value) VALUES
  ('COc1cc(COP(=O)(OCc2cc(OC)c(OC)cc2[N+](=O)[O-])OC[C@H]2O[C@H](OC)[C@H](O)[C@@H](O)[C@@H]2O)c([N+](=O)[O-])cc1OC [DMNB-G6P(1-OMe)]', 'deprotection time of caged G6P(1-OMe)', '120 min'),
  ('CO[C@H]1O[C@H](COP(=O)(OCc2ccccc2[N+](=O)[O-])OCc2ccccc2[N+](=O)[O-])[C@@H](O)[C@H](O)[C@H]1O [NB-G6P(1-OMe)]', 'deprotection time of caged G6P(1-OMe)', '75 min'),
  ('COc1cc(COP(=O)(O)OC[C@H]2O[C@H](OC)[C@H](O)[C@@H](O)[C@@H]2O)c([N+](=O)[O-])cc1OC [Mono-DMNB-G6P(1-OMe)]', 'deprotection time of caged G6P(1-OMe)', '75 min'),
  ('COC1OC(COP(=O)(OC(C)c2ccccc2[N+](=O)[O-])OC(C)c2ccccc2[N+](=O)[O-])C(O)C(O)C1O (mixture of isomers) [NPE-G6P(1-OMe)]', 'deprotection time of caged G6P(1-OMe)', '75 min');
